Subject Of Test: human C5 protein (human, UniProt P01031 19-673; P01031 678-1676)
Measurement Protocol: cell-based or functional assay
Positions of bridges follow the written chain, without caps; N, C: chain ends. Primed or numbered codes have the meaning given here. No end group written: not given here. mXylyl(4) = bridging moiety between residues
Outcome Measure: Avg. IC50 (nM), human hemolysis assay

MCVERFC-NH2 (linker 2-7 via mXylyl(4)) [R3047]
> 100000 nM

Exercise: Quick one: Avg. IC50 (nM), human hemolysis assay for MCVERFCDVYW-NH2 (linker 2-7 via mXylyl(4)) [R3044] ?
Solution: > 50000 nM

Exercise: Quick one: Avg. IC50 (nM), human hemolysis assay for MCVERFCDV-NH2 (linker 2-7 via mXylyl(4)) [R3046] ?
Solution: > 100000 nM

Exercise: Quick one: Avg. IC50 (nM), human hemolysis assay for MCVERFCDVYWE-NH2 (linker 2-7 via mXylyl(4)) [R3043] ?
Solution: 934 nM

Exercise: Quick one: Avg. IC50 (nM), human hemolysis assay for MCVERFCDVY-NH2 (linker 2-7 via mXylyl(4)) [R3045] ?
Solution: > 100000 nM
